This collection of values is drawn from patent US12588678B2.

Test system: Tetranychus cinnabarinus mite eggs
Test: Activity against mite eggs, dipping method on bean seedling leaves
Format: in vivo
Conditions: Tetranychus cinnabarinus, 96 h, read-out: mortality of mite eggs (%), 100 mg/L; checked after 4 days
readoutKind: mortality at 100 µg/mL (%)
# output: bare number, implied unit %

Which mortality at 100 µg/mL is listed for CCOc1cc(C(C)(C)C)ccc1C1COC(c2c(F)cccc2F)=N1 (stereo not shown) [Etoxazole, reference compound] ?
100

Which mortality at 100 µg/mL is listed for C=C(C)COCc1ccc(C2COC(c3c(F)cccc3F)=N2)cc1 (stereo not shown) ?
100

Which mortality at 100 µg/mL is listed for Fc1cccc(F)c1C1=NC(c2ccc(CN3CCCCCCC3)cc2)CO1 (stereo not shown) ?
90

Which mortality at 100 µg/mL is listed for O=S(=O)(Oc1ccc(C2COC(c3c(F)cccc3F)=N2)cc1)c1ccc2c(c1)OCCO2 (stereo not shown) ?
70

Which mortality at 100 µg/mL is listed for Cc1ccc2ccn(Cc3ccc(C4COC(c5c(F)cccc5F)=N4)cc3)c2c1 (stereo not shown) ?
100

Which mortality at 100 µg/mL is listed for O=S(=O)(Oc1ccc(C2COC(c3c(F)cccc3F)=N2)cc1)c1ccc(Br)cc1 (stereo not shown) ?
100

Which mortality at 100 µg/mL is listed for Fc1cccc(F)c1C1=NC(c2ccc(COc3ccncc3)cc2)CO1 (stereo not shown) ?
100

Which mortality at 100 µg/mL is listed for FCCOCc1ccc(C2COC(c3c(F)cccc3F)=N2)cc1 (stereo not shown) ?
100

Which mortality at 100 µg/mL is listed for O=C1CCC(=O)N1Cc1ccc(C2COC(c3c(F)cccc3F)=N2)cc1 (stereo not shown) ?
70

Which mortality at 100 µg/mL is listed for Fc1cccc(F)c1C1=NC(c2ccc(COc3ncccn3)cc2)CO1 (stereo not shown) ?
100

Which mortality at 100 µg/mL is listed for Fc1cccc(F)c1C1=NC(c2ccc(Cn3ccc4c(F)cccc43)cc2)CO1 (stereo not shown) ?
100

Which mortality at 100 µg/mL is listed for Fc1cccc(F)c1C1=NC(c2ccc(COc3ccccn3)cc2)CO1 (stereo not shown) ?
100

Which mortality at 100 µg/mL is listed for Fc1cccc(F)c1C1=NC(c2ccc(CN3CCc4ccccc4C3)cc2)CO1 (stereo not shown) ?
100

Which mortality at 100 µg/mL is listed for Fc1ccc2ccn(Cc3ccc(C4COC(c5c(F)cccc5F)=N4)cc3)c2c1 (stereo not shown) ?
100

Which mortality at 100 µg/mL is listed for O=S(=O)(Oc1ccc(C2COC(c3c(F)cccc3F)=N2)cc1)c1ccc(F)cc1 (stereo not shown) ?
100

Which mortality at 100 µg/mL is listed for COc1ccc2ccn(Cc3ccc(C4COC(c5c(F)cccc5F)=N4)cc3)c2c1 (stereo not shown) ?
90

Which mortality at 100 µg/mL is listed for Fc1cccc(F)c1C1=NC(c2ccc(CN3CC=CC3)cc2)CO1 (stereo not shown) ?
100

Which mortality at 100 µg/mL is listed for O=S(=O)(Oc1ccc(C2COC(c3c(F)cccc3F)=N2)cc1)c1cccc(F)c1 (stereo not shown) ?
100

Which mortality at 100 µg/mL is listed for Fc1cccc(F)c1C1=NC(c2ccc(COc3ccc(C(F)(F)F)cc3)cc2)CO1 (stereo not shown) ?
90

Which mortality at 100 µg/mL is listed for Cc1cccc2ccn(Cc3ccc(C4COC(c5c(F)cccc5F)=N4)cc3)c12 (stereo not shown) ?
100

Which mortality at 100 µg/mL is listed for Fc1cccc(F)c1C1=NC(c2ccc(Cn3ccc4cc(Cl)ccc43)cc2)CO1 (stereo not shown) ?
100

Which mortality at 100 µg/mL is listed for O=S(=O)(Oc1ccc(C2COC(c3c(F)cccc3F)=N2)cc1)c1ccc(F)cc1F (stereo not shown) ?
90

Which mortality at 100 µg/mL is listed for O=S(=O)(Oc1ccc(C2COC(c3c(F)cccc3F)=N2)cc1)c1cccc2ccccc12 (stereo not shown) ?
80

Which mortality at 100 µg/mL is listed for Fc1cccc(F)c1C1=NC(c2ccc(COCC#Cc3ccccc3)cc2)CO1 (stereo not shown) ?
100

Which mortality at 100 µg/mL is listed for CCS(=O)(=O)Oc1ccc(C2COC(c3c(F)cccc3F)=N2)cc1 (stereo not shown) ?
95

Which mortality at 100 µg/mL is listed for Fc1cccc(F)c1C1=NC(c2ccc(Cn3ccc4cc(Br)ccc43)cc2)CO1 (stereo not shown) ?
100

Which mortality at 100 µg/mL is listed for Fc1cccc(F)c1C1=NC(c2ccc(Cn3cccn3)cc2)CO1 (stereo not shown) ?
80

Which mortality at 100 µg/mL is listed for O=S(=O)(Oc1ccc(C2COC(c3c(F)cccc3F)=N2)cc1)c1ccccc1F (stereo not shown) ?
95

Which mortality at 100 µg/mL is listed for C=CS(=O)(=O)Oc1ccc(C2COC(c3c(F)cccc3F)=N2)cc1 (stereo not shown) ?
80

Which mortality at 100 µg/mL is listed for Cc1ccc(S(=O)(=O)Oc2ccc(C3COC(c4c(F)cccc4F)=N3)cc2)cc1 (stereo not shown) ?
92

Which mortality at 100 µg/mL is listed for CC(=O)N1CCN(Cc2ccc(C3COC(c4c(F)cccc4F)=N3)cc2)C1=O (stereo not shown) ?
95

Which mortality at 100 µg/mL is listed for COCc1ccc(C2COC(c3c(F)cccc3F)=N2)cc1 (stereo not shown) ?
100

Which mortality at 100 µg/mL is listed for Fc1ccc2c(ccn2Cc2ccc(C3COC(c4c(F)cccc4F)=N3)cc2)c1 (stereo not shown) ?
98

Which mortality at 100 µg/mL is listed for O=S(=O)(Oc1ccc(C2COC(c3c(F)cccc3F)=N2)cc1)c1ccc(I)cc1 (stereo not shown) ?
100
